- target_under_test: T1, Caspase-6 (UniProt P55212 24-293, limits assumed)
- T1 sequence (looked up): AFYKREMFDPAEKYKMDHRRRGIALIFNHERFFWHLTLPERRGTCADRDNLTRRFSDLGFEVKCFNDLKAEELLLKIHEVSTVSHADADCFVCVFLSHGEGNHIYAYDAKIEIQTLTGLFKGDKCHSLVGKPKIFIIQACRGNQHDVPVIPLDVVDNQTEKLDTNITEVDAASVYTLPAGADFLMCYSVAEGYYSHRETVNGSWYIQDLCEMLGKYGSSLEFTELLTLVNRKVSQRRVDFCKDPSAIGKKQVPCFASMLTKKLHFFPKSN
- method_notes: cell-based or functional assay
Numbered stars: 1 amine (or outer) side, 2 acyl side, 3 side chain; on linkers, the order of the positions; unused ones are H or OH. Square brackets hold non-standard residues; d marks the D form. * marks the point of attachment. AAsp = aza-Asp, O=C(N(CC(=O)[*:3])N[*:1])[*:2]; CH═CH‑CON(CH3)CH2Ph = CN(Cc1ccccc1)C(=O)/C=C/*; Cbz = O=C(OCc1ccccc1)*
Some binders, each annotated with its measured k2.
Report as a plain number; the unit M⁻¹ s⁻¹ is understood.

# binder, unit_spec, k2
rows = [
    ("Cbz-LET[AAsp]-{CH═CH‑CONHCH2‑4‑F‑Ph} [Cbz-Leu-Glu-Thr-AAsp-CH═CH-CONHCH2-4-F-Ph]", "M⁻¹ s⁻¹", 3100),
]

Here is the next item to consider.
Challenge: What measured k2 goes with Cbz-LET[AAsp]-{CH═CH‑CON(CH3)CH2Ph} (SMILES CC(C)C[C@H](NC(=O)OCc1ccccc1)C(=O)N[C@@H](CCC(=O)O)C(=O)N[C@H](C(=O)NN(CC(=O)O)C(=O)/C=C/C(=O)N(C)Cc1ccccc1)[C@@H](C)O) [Cbz-Leu-Glu-Thr-AAsp-CH═CH-CON(CH3)CH2Ph] ?
Response given: 10800
